Listed here: items and their measured GI50.
Tested on: Hs-578T
Experiment Notes: NCI tumour cell line growth inhibition, 48 h
Active and inactive are the calls of the source. Cut-off read from the data, not from the text of the source: active = GI50 up to about 1.1 µM and inactive = higher.

Compound | Target Or System | Measured
CO[C@@H](c1ccccc1)[C@H](O)[C@@](O)(c1ccccc1)P(=O)(OC)OC | Hs-578T | > 100 µM (inactive)
CCOC(=O)NC(Nc1ccc(S(=O)(=O)Nc2ncccn2)cc1)(C(=O)OCC)C(F)(F)F (configuration not stated) | Hs-578T | > 100 µM (inactive)
COc1c(-c2cc(C)c(Cl)c(=O)[nH]2)c(O)c(OC)c2occc12 | Hs-578T | > 10 µM (inactive)
COc1cc(-c2cc(=O)c3c(OC)c(OC)c(OC)c(OC)c3o2)cc(OC)c1OC | Hs-578T | 29 µM (inactive)
S=C1NC2=C(COC/C2=C\c2ccccc2Cl)C(c2ccccc2Cl)N1 (configuration not stated) | Hs-578T | > 100 µM (inactive)
COc1ccc(/C(C)=C2\CCCN(Cc3ccccc3)C2)cc1 | Hs-578T | 13.5 µM (inactive)
Nc1cc2nc(O)c(O)nc2cc1N | Hs-578T | > 100 µM (inactive)
Nc1cc2c3c(c1)Oc1cc(N)cc4c1C3c1c(cc(N)cc1O4)O2 | Hs-578T | 24.2 µM (inactive)
COc1ccccc1NC(=S)N/N=C/c1c(C)n(C)n(-c2ccccc2)c1=O | Hs-578T | 37.8 µM (inactive)
NC(CSCc1ccc(I)cc1)C(=O)O (configuration not stated) | Hs-578T | 80.7 µM (inactive)

Exercise: Which GI50 value belongs to Cc1nc2c(Br)cc(Br)cc2c(=O)n1-c1ccccc1NC1OC(CO)C(O)C(O)C1O (configuration not stated) ?
Solution: > 100 µM (inactive)

Exercise: Please report the recorded GI50 for COc1ccc(/C=C2\CN(C)CC3=C2OC(N)=C(C#N)C3c2ccc(OC)cc2)cc1 (configuration not stated) .
Solution: 88.1 µM (inactive)

Exercise: Data request, read-out GI50, for O=C(O)c1nc2nc(Cl)c(Cl)nc2[nH]1
Solution: > 100 µM (inactive)

Exercise: Entry Cc1ccsc1C(=O)C(CC(=O)c1cccs1)c1ccsc1 (configuration not stated) : reported GI50 = ?
Solution: > 100 µM (inactive)

Exercise: Item under review: CC(C)(C)OC(=O)NCCNC(=O)CN(CC(=O)O)C1CCCCC1N(CC(=O)O)CC(=O)O (configuration not stated) . Reported GI50?
Solution: > 100 µM (inactive)

Exercise: // lookup GI50 for CCOC(=O)C1CCC(=O)N1C(=O)c1ccccc1 (configuration not stated)
Solution: > 100 µM (inactive)

# credit: ChEMBL document CHEMBL1201862
